MIC listing for selected compounds.
# Test system: Streptococcus pneumoniae
# Assay Explanation: Antibacterial activity against Streptococcus pneumoniae for 18 to 24 hrs by broth microdilution method
# Format: functional
Experimental Endpoint: MIC (µg/mL)

| Smiles Record | Measurement Target | Unit Text | Censoring Sign | Reported Value |
| --- | --- | --- | --- | --- |
| CCCc1cccc2c(-c3cnc(-c4ccc(C(=O)O)c(=O)[nH]4)s3)n[nH]c12 | Streptococcus pneumoniae | µg/mL | > | 8 |
| CCCOc1nccc2c(-c3cnc(-c4ccc(COP(=O)([O-])[O-])nc4)s3)n[nH]c12.[Na+].[Na+] | Streptococcus pneumoniae | µg/mL | = | 1 |
| CCOc1cccc2c(-c3cnc(-c4ccc(C(=O)O)c(F)c4)s3)n[nH]c12 | Streptococcus pneumoniae | µg/mL | = | 1 |
| CCCOc1nccc2c(-c3cnc(-c4cnc(C(=O)O)cc4C)s3)n[nH]c12 | Streptococcus pneumoniae | µg/mL | = | 0.125 |
| CCOc1nccc2c(-c3cnc(-c4cnc(C(=O)O)cc4C)s3)n[nH]c12 | Streptococcus pneumoniae | µg/mL | = | 0.125 |
| COc1c(N2C[C@@H]3CCCN[C@@H]3C2)c(F)cc2c(=O)c(C(=O)O)cn(C3CC3)c12 | Streptococcus pneumoniae | µg/mL | = | 0.06 |
| CCCc1cccc2c(-c3cnc(-c4ccc(C(=O)NCCN5CCCCC5)nc4)s3)n[nH]c12 | Streptococcus pneumoniae | µg/mL | > | 8 |
| CCCc1cccc2c(-c3cnc(-c4ccc(C(=O)O)c(F)c4)s3)n[nH]c12 | Streptococcus pneumoniae | µg/mL | = | 0.25 |
| CCCc1cccc2c(-c3cncs3)n[nH]c12 | Streptococcus pneumoniae | µg/mL | > | 32 |
| CCCc1c(OC)ccc2c(-c3cnc(-c4ccc(C(=O)O)c(F)c4)s3)n[nH]c12 | Streptococcus pneumoniae | µg/mL | = | 0.125 |
| CCCc1cccc2c(-c3cnc(-c4ccc(C(=O)OC)nc4)s3)n[nH]c12 | Streptococcus pneumoniae | µg/mL | = | 0.125 |
| CCCOc1nccc2c(-c3cnc(-c4ccc(CO)nc4)s3)n[nH]c12 | Streptococcus pneumoniae | µg/mL | = | 0.25 |
